- Experimental target: full length G2019 human LRRK2 (Homo sapiens, UniProt Q5S007, R50H)
- Sequence (Q5S007 with tags, fused parts or gaps R50H): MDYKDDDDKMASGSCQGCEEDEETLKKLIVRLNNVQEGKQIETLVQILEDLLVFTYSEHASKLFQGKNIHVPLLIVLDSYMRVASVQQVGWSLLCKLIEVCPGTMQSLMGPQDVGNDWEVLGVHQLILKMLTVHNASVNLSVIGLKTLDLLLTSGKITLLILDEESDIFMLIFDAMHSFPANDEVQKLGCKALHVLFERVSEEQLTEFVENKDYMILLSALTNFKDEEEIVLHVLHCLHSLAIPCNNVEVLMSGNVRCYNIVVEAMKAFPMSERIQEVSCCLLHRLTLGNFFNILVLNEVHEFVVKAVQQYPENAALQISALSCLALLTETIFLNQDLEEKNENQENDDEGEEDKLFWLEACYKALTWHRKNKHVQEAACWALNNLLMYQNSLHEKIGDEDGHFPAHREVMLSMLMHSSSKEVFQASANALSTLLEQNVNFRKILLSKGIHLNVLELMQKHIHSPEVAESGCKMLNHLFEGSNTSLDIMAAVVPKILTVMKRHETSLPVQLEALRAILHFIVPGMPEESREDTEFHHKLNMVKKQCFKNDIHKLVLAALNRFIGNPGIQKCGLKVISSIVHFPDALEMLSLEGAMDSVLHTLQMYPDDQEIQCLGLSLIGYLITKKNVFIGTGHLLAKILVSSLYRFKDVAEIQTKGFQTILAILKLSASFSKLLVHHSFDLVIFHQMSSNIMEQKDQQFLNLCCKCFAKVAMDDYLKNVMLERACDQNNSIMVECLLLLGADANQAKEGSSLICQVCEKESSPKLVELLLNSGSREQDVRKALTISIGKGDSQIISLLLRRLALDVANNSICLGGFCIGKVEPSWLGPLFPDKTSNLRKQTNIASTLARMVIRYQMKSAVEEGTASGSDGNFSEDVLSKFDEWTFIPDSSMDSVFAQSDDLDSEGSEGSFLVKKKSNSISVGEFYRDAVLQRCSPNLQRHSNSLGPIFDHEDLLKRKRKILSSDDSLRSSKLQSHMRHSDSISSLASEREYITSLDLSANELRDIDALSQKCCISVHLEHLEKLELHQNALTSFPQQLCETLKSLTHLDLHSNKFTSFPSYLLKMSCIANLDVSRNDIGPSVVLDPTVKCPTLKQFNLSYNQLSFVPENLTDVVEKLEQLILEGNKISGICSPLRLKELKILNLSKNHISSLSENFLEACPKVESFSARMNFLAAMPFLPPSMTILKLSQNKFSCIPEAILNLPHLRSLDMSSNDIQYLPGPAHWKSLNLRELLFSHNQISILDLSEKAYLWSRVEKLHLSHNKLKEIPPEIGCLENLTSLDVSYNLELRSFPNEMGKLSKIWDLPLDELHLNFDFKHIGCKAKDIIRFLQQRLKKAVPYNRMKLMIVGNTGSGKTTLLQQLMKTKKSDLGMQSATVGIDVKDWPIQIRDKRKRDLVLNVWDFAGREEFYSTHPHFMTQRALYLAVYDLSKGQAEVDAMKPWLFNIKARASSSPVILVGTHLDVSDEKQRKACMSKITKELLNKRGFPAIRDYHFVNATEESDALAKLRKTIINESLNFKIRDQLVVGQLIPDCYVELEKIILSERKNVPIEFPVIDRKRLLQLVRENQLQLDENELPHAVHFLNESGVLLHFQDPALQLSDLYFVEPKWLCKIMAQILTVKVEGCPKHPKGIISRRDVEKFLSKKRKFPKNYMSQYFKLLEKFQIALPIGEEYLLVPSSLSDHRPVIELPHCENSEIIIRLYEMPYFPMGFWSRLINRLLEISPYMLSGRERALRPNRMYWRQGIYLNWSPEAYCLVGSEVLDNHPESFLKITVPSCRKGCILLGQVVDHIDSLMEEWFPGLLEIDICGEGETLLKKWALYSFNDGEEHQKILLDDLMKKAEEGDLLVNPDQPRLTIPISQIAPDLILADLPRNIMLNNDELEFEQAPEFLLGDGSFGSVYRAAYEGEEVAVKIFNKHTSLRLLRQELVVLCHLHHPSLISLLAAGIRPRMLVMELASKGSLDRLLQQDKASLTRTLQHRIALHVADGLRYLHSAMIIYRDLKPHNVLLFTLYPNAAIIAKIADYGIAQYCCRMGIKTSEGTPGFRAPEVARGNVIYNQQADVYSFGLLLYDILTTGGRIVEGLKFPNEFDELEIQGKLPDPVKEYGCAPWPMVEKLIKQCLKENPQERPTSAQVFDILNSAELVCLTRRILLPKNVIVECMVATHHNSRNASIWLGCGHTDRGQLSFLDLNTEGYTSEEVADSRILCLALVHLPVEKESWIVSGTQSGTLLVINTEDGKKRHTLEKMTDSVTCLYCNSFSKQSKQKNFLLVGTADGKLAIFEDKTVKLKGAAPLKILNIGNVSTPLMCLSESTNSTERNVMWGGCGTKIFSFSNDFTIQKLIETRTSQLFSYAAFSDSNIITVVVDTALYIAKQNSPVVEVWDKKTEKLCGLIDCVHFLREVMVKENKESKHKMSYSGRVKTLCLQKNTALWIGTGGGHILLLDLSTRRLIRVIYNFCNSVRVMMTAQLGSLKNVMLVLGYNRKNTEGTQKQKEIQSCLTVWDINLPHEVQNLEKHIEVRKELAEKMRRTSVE
- Assay comment: Full length G2019 human LRRK2 inhibition mass spectrometry assay
- Test conditions: LRRKtide to phospho-LRRKtide conversion, RapidFire MS, 2 mM ATP
pIC50: −log10 of the molar value.
Below: a set of entries, each annotated with reported pIC50.

Molecule: Cc1c2c(nn1C1CCOCC1)OCCC(C)(C)Nc1nc(ncc1Cl)N2
pIC50: ≥ 5.00
//
Molecule: Cc1c2c(nn1C1COC1)OCC[C@@H](C)Nc1nc(ncc1Cl)N2
pIC50: ≥ 7.00
//
Molecule: Cc1[nH]nc2c1Nc1ncc(C(F)(F)F)c(n1)NCCCO2
pIC50: ≥ 7.00
//
Molecule: Cc1c2c(nn1C1CCOCC1)OCCC(C(F)F)Nc1nc(ncc1Cl)N2 (single isomer, unassigned) [E88]
pIC50: ≥ 7.00
//
Molecule: COCC1CCOc2nn(C3CCOCC3)c(C)c2Nc2ncc(Cl)c(n2)N1 (single isomer, unassigned) [E35]
pIC50: ≥ 7.00
//
Molecule: COc1cnc2nc1N[C@H](C)CCOc1nn(C3CCOCC3)c(C)c1N2
pIC50: ≥ 5.00
//
Molecule: Cc1c2c(nn1C1CC(N3CCC(F)(F)C3)C1)OCCC(C)Nc1nc(ncc1Cl)N2 (single isomer, unassigned) [E315]
pIC50: ≥ 5.00
//
Molecule: Cc1c2c(nn1C1CCN(C3CCOC3)CC1)OCC[C@@H](C)Nc1nc(ncc1Cl)N2 (some centres unmarked)
pIC50: ≥ 7.00
//
Molecule: COC1CNc2nc(ncc2Cl)Nc2c(nn(C3CC4CCC(C3)O4)c2C)OC1 (single isomer, unassigned) [E245]
pIC50: ≥ 7.00
//
Molecule: Cc1c2c(nn1C1CCOCC1)OCCC(C(F)F)Nc1nc(ncc1Cl)N2 (single isomer, unassigned) [E89]
pIC50: ≥ 5.00
//
Molecule: Cc1c2c(nn1C1CCOCC1)OCCC(C)Nc1nc(ncc1C(F)(F)F)N2 (single isomer, unassigned) [E291]
pIC50: ≥ 7.00
